These data points were gathered from the supplement of paper PMC11061612.

Tested on: SK-CO-1 (Colorectal Carcinoma);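 note: after 72 h of two-drug dosing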
PROTOCOL_DETAILS: Bliss excess, mean over the matrix (fraction); higher = more synergy
Rule: TRUE for Bliss excess not less than -0.03, FALSE for anything less.

- CN(CCO)CC[C@H](CSc1ccccc1)Nc1ccc(S(=O)(=O)NC(=O)c2ccc(N3CCC([C@@H](O)c4ccccc4-c4ccc(Cl)cc4)CC3)cc2)cc1S(=O)(=O)C(F)(F)F [AZD4320] + Nc1ccn([C@@H]2O[C@H](CO)[C@@H](O)C2(F)F)c(=O)n1 [Gemcitabine] (first compound max 1 µM, 7x7, partner max 0.3 µM): TRUE
- Cc1c2c(nn1C)CSCc1cc(n(C)n1)CSc1cc(c3ccccc3c1)OCCCc1c(C(=O)O)n(C)c3c-2c(Cl)ccc13 [AZD5991] + CC(=O)O[C@H]1C(=O)[C@@]2(C)[C@H]([C@H](OC(=O)c3ccccc3)[C@]3(O)C[C@H](OC(=O)[C@H](O)[C@@H](NC(=O)c4ccccc4)c4ccccc4)C(C)=C1C3(C)C)[C@]1(OC(C)=O)CO[C@@H]1C[C@@H]2O [Paclitaxel] (first compound max 1 µM, 7x7, partner max 3 µM): FALSE
- C[C@@H](Nc1cc(F)cc(F)c1)c1cc(C(=O)N(C)C)cc2c(=O)cc(N3CCOCC3)oc12 [AZD8186] + C1CN(CCC1(C(=O)N[C@@H](CCO)C2=CC=C(C=C2)Cl)N)C3=NC=NC4=C3C=CN4 [AZD5363] (first compound max 10 µM, 7x7, partner max 10 µM): TRUE
- Cc1c2c(nn1C)CSCc1cc(n(C)n1)CSc1cc(c3ccccc3c1)OCCCc1c(C(=O)O)n(C)c3c-2c(Cl)ccc13 [AZD5991] + C[C@@H](Nc1cc(F)cc(F)c1)c1cc(C(=O)N(C)C)cc2c(=O)cc(N3CCOCC3)oc12 [AZD8186] (first compound max 1 µM, 7x7, partner max 3 µM): FALSE
- COc1nnc2ccc(N3CCC(c4ccc(OCCN5CCN(C)C(=O)[C@H]5C)cc4)CC3)nn12 [AZD5153] + CC1(C)CCC(CN2CCN(c3ccc(C(=O)NS(=O)(=O)c4ccc(NCC5CCOCC5)c([N+](=O)[O-])c4)c(Oc4cnc5[nH]ccc5c4)c3)CC2)=C(c2ccc(Cl)cc2)C1 [Venetoclax] (first compound max 1 µM, 7x7, partner max 1 µM): FALSE

From here, focus on the item given below.
(Q) Hi, just wondering whether CN(C)CCCOc1ccc(-c2ccc3ncc4c(c3c2)n(C2CCOCC2)c(=O)n4C)cn1 [AZD0156] + C=CCn1c(=O)c2cnc(Nc3ccc(N4CCN(C)CC4)cc3)nc2n1-c1cccc(C(C)(C)O)n1 [AZD1775] (first compound max 1 µM, partner max 1 µM) shows Bliss excess of -0.03 or higher.
(A) FALSE

* * *

Tested on: SNU-423 (Hepatocellular Carcinoma)
PROTOCOL_DETAILS: combination Emax (second highest fraction inhibited in the dose matrix, 72 h); higher = more inhibition; extreme values may be limits of the assay
VALUE_TYPE: combination Emax
// return just the number, without any unit appended

* CN(C)CCCOc1ccc(-c2ccc3ncc4c(c3c2)n(C2CCOCC2)c(=O)n4C)cn1 [AZD0156] + C=CCn1c(=O)c2cnc(Nc3ccc(N4CCN(C)CC4)cc3)nc2n1-c1cccc(C(C)(C)O)n1 [AZD1775] (first compound max 1 µM, partner max 1 µM) | 0.506
* CC(=O)c1c(C)c2cnc(Nc3ccc(N4CCNCC4)cn3)nc2n(C2CCCC2)c1=O [Palbociclib] + Cn1cnc2c(F)c(Nc3ccc(Br)cc3Cl)c(C(=O)NOCCO)cc21 [Selumetinib] (first compound max 10 µM, 7x7, partner max 10 µM) | 0.241
* Cc1c2c(nn1C)CSCc1cc(n(C)n1)CSc1cc(c3ccccc3c1)OCCCc1c(C(=O)O)n(C)c3c-2c(Cl)ccc13 [AZD5991] + C[C@@H]1COCCN1C2=NC(=NC(=C2)C3(CC3)[S@](=N)(=O)C)C4=C5C=CNC5=NC=C4 [AZD6738] (first compound max 1 µM, 7x7, partner max 10 µM) | 0.471

Below: the item to evaluate.
(Q) Fill in the blank: the reported combination Emax of C[C@@H]1COCCN1c1cc(C2([S@](C)(=N)=O)CC2)nc(-c2ccnc3[nH]ccc23)n1 [AZD6738] + O=C(c1cc(Cc2n[nH]c(=O)c3ccccc23)ccc1F)N1CCN(C(=O)C2CC2)CC1 [Olaparib] (first compound max 10 µM, 7x7, partner max 10 µM) is ____.
(A) 0.576
